Entry source: patent US20250026724A1

The entries below come with measured pest or weed control at 320 g/ha values attached.
- System: Amaranthus retroflexus (AMARE)
- Protocol Summary: Post-emergence herbicidal action, greenhouse pot trial
- Assay type: in vivo
- Condition Description: Amaranthus retroflexus, 504 h, 320 g/ha, visual rating after about 3 weeks, read-out: Post-emergence effect at 320 g/ha against AMARE in %
- Procedure: Seeds of monocotyledonous and dicotyledonous weeds and crop plants are placed in sandy loam in plastic or organic planting pots, covered with soil and cultivated in a greenhouse under controlled growth conditions. 2 to 3 weeks after sowing, the trial plants are treated at the one-leaf stage. […]
Metric Name: pest or weed control at 320 g/ha (%)

CCOC(=O)C(Oc1nn(-c2ncccc2F)c(-c2ccc(F)nc2)c1Cl)SC (stereo not drawn) [Example I-19] = 90
CCOC(=O)C(Oc1nn(-c2ncccc2F)c(-c2ccc(F)nc2)c1I)SC (stereo not drawn) [Example I-18] = 90
CCOC(=O)C(Oc1nn(-c2ncccc2F)c(-c2ccc(F)nc2)c1C1CC1)SC (stereo not drawn) [Example I-20] = 80
